# EXPERIMENTAL TARGET: Lck (p56^lck) (Homo sapiens)
READOUT: IC50

# COMPOUND, VALUE
data = [
    ("CC(C)OC(=O)Nc1cnc2[nH]c(-c3cccc(S(C)(=O)=O)c3)nc2c1 [Example 8-2]", "0.1 to 9 µM"),
    ("COCCCNC(=O)c1cccc(-c2nc3cc(NC(=O)OC(C)C)cnc3[nH]2)c1 [Example 11-3]", "0.1 to 9 µM"),
    ("CC(=O)Nc1cccc(-c2cc3cc(NC(=O)OC(C)C)cnc3[nH]2)c1 [Example 9-20]", "0.1 to 9 µM"),
]

###

# EXPERIMENTAL TARGET: Lck (p56^lck) (Homo sapiens, UniProt P06239)
# Sequence (P06239 whole entry): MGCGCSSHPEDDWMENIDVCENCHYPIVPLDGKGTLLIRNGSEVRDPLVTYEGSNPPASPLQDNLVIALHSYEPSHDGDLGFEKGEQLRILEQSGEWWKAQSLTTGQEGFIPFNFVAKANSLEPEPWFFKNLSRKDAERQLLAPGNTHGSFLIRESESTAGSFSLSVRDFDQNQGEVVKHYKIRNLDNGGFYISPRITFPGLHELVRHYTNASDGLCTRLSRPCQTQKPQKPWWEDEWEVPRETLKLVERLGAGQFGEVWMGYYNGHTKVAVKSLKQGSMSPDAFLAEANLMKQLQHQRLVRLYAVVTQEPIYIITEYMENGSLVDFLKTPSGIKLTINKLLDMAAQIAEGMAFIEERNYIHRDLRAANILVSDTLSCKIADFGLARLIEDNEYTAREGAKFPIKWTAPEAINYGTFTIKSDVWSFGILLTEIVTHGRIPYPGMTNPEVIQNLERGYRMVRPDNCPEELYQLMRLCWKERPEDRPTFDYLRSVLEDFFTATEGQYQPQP
pIC50: −log10 of the molar value.

# SMILES STRUCTURE, EXPERIMENTAL TARGET, pIC50
data = [
    ("CC(C)OC(=O)Nc1cnc2[nH]c(-c3ccccc3)cc2c1", "Lck (p56^lck) (Homo sapiens, UniProt P06239)", "5.05 to 7.00"),
    ("CCN(CC)CCOc1ccc(-c2nc3cc(NC(=O)OC(C)C)cnc3[nH]2)cc1", "Lck (p56^lck) (Homo sapiens, UniProt P06239)", "5.05 to 7.00"),
    ("CC(C)(C)COC(=O)Nc1cnc2[nH]c(-c3ccccc3)nc2c1", "Lck (p56^lck) (Homo sapiens, UniProt P06239)", "5.05 to 5.70"),
    ("CC(C)OC(=O)Nc1cnc2[nH]c(-c3ccc([N+](=O)[O-])cc3)nc2c1", "Lck (p56^lck) (Homo sapiens, UniProt P06239)", "5.05 to 7.00"),
    ("CC(C)OC(=O)Nc1cnc2[nH]c(-c3cccc(CCO)c3)nc2c1", "Lck (p56^lck) (Homo sapiens, UniProt P06239)", "5.05 to 7.00"),
    ("COCCOc1ccc(-c2cc3cc(NC(=O)OC(C)C)cnc3[nH]2)cc1", "Lck (p56^lck) (Homo sapiens, UniProt P06239)", "5.05 to 7.00"),
    ("O=C(Nc1cnc2[nH]c(-c3ccccc3)cc2c1)OCc1ccccc1", "Lck (p56^lck) (Homo sapiens, UniProt P06239)", "5.05 to 7.00"),
    ("CC(C)OC(=O)Nc1cnc2[nH]c(-c3ccnc(Cl)c3)nc2c1", "Lck (p56^lck) (Homo sapiens, UniProt P06239)", "5.05 to 7.00"),
    ("Cc1cc(-c2nc3cc(NC(=O)OC(C)C)cnc3[nH]2)ccn1", "Lck (p56^lck) (Homo sapiens, UniProt P06239)", "5.05 to 7.00"),
]

###

The following compounds are listed with their measured pIC50 values.
# EXPERIMENTAL TARGET: Src (p60^c-src) (Homo sapiens, UniProt P12931)
# Sequence (P12931 whole entry): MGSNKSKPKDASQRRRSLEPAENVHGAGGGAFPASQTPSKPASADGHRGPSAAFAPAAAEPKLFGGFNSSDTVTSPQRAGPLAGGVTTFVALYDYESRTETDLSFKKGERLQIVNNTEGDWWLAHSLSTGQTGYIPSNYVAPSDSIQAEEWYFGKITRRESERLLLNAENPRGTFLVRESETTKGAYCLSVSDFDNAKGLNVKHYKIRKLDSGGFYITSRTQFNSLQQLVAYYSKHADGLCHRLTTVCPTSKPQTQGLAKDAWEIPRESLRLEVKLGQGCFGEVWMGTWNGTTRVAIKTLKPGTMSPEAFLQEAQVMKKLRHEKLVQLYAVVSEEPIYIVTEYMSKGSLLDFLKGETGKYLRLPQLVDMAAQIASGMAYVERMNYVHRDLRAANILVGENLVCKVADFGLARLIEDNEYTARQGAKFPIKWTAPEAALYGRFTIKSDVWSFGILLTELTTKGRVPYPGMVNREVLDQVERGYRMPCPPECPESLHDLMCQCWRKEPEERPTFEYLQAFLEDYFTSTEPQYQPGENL
pIC50: −log10 of the molar value.

# COMPOUND, EXPERIMENTAL TARGET, pIC50
records = [
    ("CCCOC(=O)Nc1cnc2nc(-c3ccccc3)[nH]c2c1", "Src (p60^c-src) (Homo sapiens, UniProt P12931)", "6.30 to 8.00"),
    ("C=CC(C)OC(=O)Nc1cnc2[nH]c(-c3ccccc3)nc2c1 (stereo not drawn)", "Src (p60^c-src) (Homo sapiens, UniProt P12931)", "6.30 to 8.00"),
    ("CC(C)OC(=O)Nc1cnc2[nH]c(-c3ccnc(Cl)c3)nc2c1", "Src (p60^c-src) (Homo sapiens, UniProt P12931)", "6.30 to 8.00"),
    ("CC(=O)Nc1cccc(-c2nc3cc(NC(=O)OC(C)C)cnc3[nH]2)c1", "Src (p60^c-src) (Homo sapiens, UniProt P12931)", 7.41),
    ("CC(C)(C)COC(=O)Nc1cnc2[nH]c(-c3ccccc3)nc2c1", "Src (p60^c-src) (Homo sapiens, UniProt P12931)", "5.82 to 6.30"),
    ("COCCCNC(=O)c1cccc(-c2nc3cc(NC(=O)OC(C)C)cnc3[nH]2)c1", "Src (p60^c-src) (Homo sapiens, UniProt P12931)", "6.30 to 8.00"),
    ("CC(C)OC(=O)Nc1cnc2[nH]c(-c3ccc([N+](=O)[O-])cc3)nc2c1", "Src (p60^c-src) (Homo sapiens, UniProt P12931)", "6.30 to 8.00"),
    ("CC(C)OC(=O)Nc1cnc2[nH]c(-c3ccc(F)c(F)c3)nc2c1", "Src (p60^c-src) (Homo sapiens, UniProt P12931)", "6.30 to 8.00"),
    ("CC(C)OC(=O)Nc1cnc2[nH]c(-c3cccc(CCO)c3)nc2c1", "Src (p60^c-src) (Homo sapiens, UniProt P12931)", "6.30 to 8.00"),
]
